Target: Avi-KRAS G12D (1-169) GppNHp/RAF1 RBD-3×FLAG (52-151) (Homo sapiens, UniProt P01116, G12D)
Construct: 50 nM Avi-KRAS G12D (1-169) GppNHp/RAF1 RBD-3×FLAG (52-151)
Sequence (P01116 1-169 isoform P01116-2 G12D limits assumed): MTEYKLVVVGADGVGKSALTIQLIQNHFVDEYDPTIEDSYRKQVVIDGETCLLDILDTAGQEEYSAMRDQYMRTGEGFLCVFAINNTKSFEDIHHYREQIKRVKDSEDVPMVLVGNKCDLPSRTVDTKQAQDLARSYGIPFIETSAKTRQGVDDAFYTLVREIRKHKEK
Assay: Disrupting RAS-effector binding HTRF assay, Raf1 RBD-KRAS G12D-GppNHp
Settings: PPI HTRF, 50 nM Avi-KRAS G12D GppNHp, compound titration 30-0.0045 μM; read-out: Raf1 RBD-KRAS G12D-GppNHp disruption
Experimental: A protein:protein interaction (PPI) Homogeneous Time Resolved Fluorescence (HTRF) assay was used to determine the effectiveness of compounds of the present disclosure in disrupting KRAS protein and effector RAF1 binding. […] Plates were analyzed on an Envision plate reader using the following setting: Excitation 320 nm, Bandwidth 75 nM; Emission 615 nm, Bandwidth 85 nM, Gain 100%, Flashes 100, Lag 60 μs. […] Data were plotted and analyzed using Prism 8. […]
pIC50: −log10 of the molar value.
Measured pIC50, listed per entry.

Observe how each entry below is paired with its result.
compound=N#Cc1c(N)sc2c(F)ccc(-c3c(C(F)(F)F)cc4c(N5CC6CCC(C5)N6)nc(OCC5(O)CC5)nc4c3F)c12 system_tested="Avi-KRAS G12D (1-169) GppNHp/RAF1 RBD-3×FLAG (52-151) (Homo sapiens, UniProt P01116, G12D)" reading="5.00 to 6.00"
compound=N#Cc1c(N)sc2c(F)ccc(-c3c(C(F)(F)F)cc4c(N5CC6CCC(C5)N6)nc(OC[C@H]5COCCO5)nc4c3F)c12 system_tested="Avi-KRAS G12D (1-169) GppNHp/RAF1 RBD-3×FLAG (52-151) (Homo sapiens, UniProt P01116, G12D)" reading="6.00 to 7.00"

Consider the additional compound presented here.
Request: I would be grateful if you could share the reported pIC50 for N#Cc1c(N)sc2c(F)ccc(-c3c(C(F)(F)F)cc4c(N5CC6CCC(C5)N6)nc(OCCC5CCOC5)nc4c3F)c12 (stereo not drawn) .
Result: 6.00 to 7.00

###

System: KRAS G12V protein/effector signaling in SW620 cells
Assay: Cell-based pERK HTRF assay in SW620 cell
Settings: Homo sapiens, SW-620, 1 h incubation
pIC50: −log10 of the molar value.
parameter: pIC50

Request: I would be grateful if you could share the reported pIC50 for N#Cc1c(N)sc2c(F)ccc(-c3c(C(F)(F)F)cc4c(N5CC6CCC(C5)N6)nc(O[C@H]5CCOC5)nc4c3F)c12 [Compound 69] .
Result: < 5.00

Request: I would be grateful if you could share the reported pIC50 for COC[C@@H](C)Oc1nc(N2CC3CCC(C2)N3)c2cc(C(F)(F)F)c(-c3ccc(F)c4sc(N)c(C#N)c34)c(F)c2n1 [Compound 67] .
Result: < 5.00

Request: I would be grateful if you could share the reported pIC50 for CN1C[C@H](COc2nc(N3CC4CCC(C3)N4)c3cc(C(F)(F)F)c(-c4ccc(F)c5sc(N)c(C#N)c45)c(F)c3n2)CC1=O [Compound 33] .
Result: < 5.00

###

Molecular target: Avi-KRAS WT (1-169) GppNHp/RAF1 RBD-3×FLAG (52-151) (Homo sapiens, UniProt P01116)
Construct: 50 nM Avi-KRAS WT (1-169) GppNHp/RAF1 RBD-3×FLAG (52-151)
Sequence (P01116 1-169 isoform P01116-2 limits assumed): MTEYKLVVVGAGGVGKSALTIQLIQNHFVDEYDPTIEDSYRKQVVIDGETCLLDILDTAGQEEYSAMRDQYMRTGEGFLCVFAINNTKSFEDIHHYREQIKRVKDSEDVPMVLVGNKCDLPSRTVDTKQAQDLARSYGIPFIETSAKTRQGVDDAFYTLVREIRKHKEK
Experiment: Disrupting RAS-effector binding HTRF assay, Raf1 RBD-KRAS WT-GppNHp
Settings: PPI HTRF, 50 nM Avi-KRAS WT GppNHp, compound titration 30-0.0045 μM; read-out: Raf1 RBD-KRAS WT-GppNHp disruption
pIC50: −log10 of the molar value.
Measured pIC50, listed per entry.

Observe how each entry below is paired with its result.
molecule=COCCOc1nc(N2CC3CCC(C2)N3)c2cc(C(F)(F)F)c(-c3ccc(F)c4sc(N)c(C#N)c34)c(F)c2n1 reading="5.00 to 6.00"
molecule="N#Cc1c(N)sc2c(F)ccc(-c3c(C(F)(F)F)cc4c(N5CC6CCC(C5)N6)nc(OCCC5CCOC5)nc4c3F)c12 (centres unmarked)" reading="5.00 to 6.00"
molecule=CN1C[C@@H](COc2nc(N3CC4CCC(C3)N4)c3cc(C(F)(F)F)c(-c4ccc(F)c5sc(N)c(C#N)c45)c(F)c3n2)CC1=O reading="6.00 to 7.00"
molecule=COc1nc(N(C)[C@@H]2CCNC2)c2cc(C(F)(F)F)c(-c3ccc(F)c4sc(N)c(C#N)c34)c(F)c2n1 reading="< 5.00"

Request: I would be grateful if you could share the reported pIC50 for "C[C@@H]1CN(c2ncnc3c(F)c(-c4ccc(F)c5sc(N)c(C#N)c45)c(C(F)(F)F)cc23)[C@@H](C)CN1" .
Result: < 5.00

Request: I would be grateful if you could share the reported pIC50 for "N#Cc1c(N)sc2c(F)ccc(-c3c(C(F)(F)F)cc4c(N5CC6CCC(C5)N6)nc(OC[C@H]5CNC(=O)C5)nc4c3F)c12" .
Result: 6.00 to 7.00

Request: I would be grateful if you could share the reported pIC50 for "COc1c(Cl)c(-c2ccc(F)c3sc(N)c(C#N)c23)c(F)c2ncnc(N3CC4CCC(C3)N4)c12" .
Result: < 5.00

Request: I would be grateful if you could share the reported pIC50 for "N#Cc1c(N)sc2c(F)ccc(-c3c(C(F)(F)F)cc4c(N5CC6CCC(C5)N6)nc(OCCc5ccccc5)nc4c3F)c12" .
Result: < 5.00

Request: I would be grateful if you could share the reported pIC50 for "N#Cc1c(N)sc2c(F)ccc(-c3c(C(F)(F)F)cc4c(N5CC6CCC(C5)N6)nc(OC[C@@H](O)CO)nc4c3F)c12" .
Result: 5.00 to 6.00

Request: I would be grateful if you could share the reported pIC50 for "N#Cc1c(N)sc2c(F)ccc(-c3c(C(F)(F)F)cc4c(N5CC6CCC(C5)N6)nc(OC5CCC5)nc4c3F)c12" .
Result: 5.00 to 6.00

Request: I would be grateful if you could share the reported pIC50 for "CCCc1nc(N2CC3CCC(C2)N3)c2cc(C(F)(F)F)c(-c3ccc(F)c4sc(N)c(C#N)c34)c(F)c2n1" .
Result: 5.00 to 6.00
